- target_or_system: human β3-AR (Homo sapiens, UniProt P13945)
- Construct: expressed in transfected cells; host or cells: CHO (Chinese hamster ovary) cells, stably transfected
- Sequence (P13945 whole entry): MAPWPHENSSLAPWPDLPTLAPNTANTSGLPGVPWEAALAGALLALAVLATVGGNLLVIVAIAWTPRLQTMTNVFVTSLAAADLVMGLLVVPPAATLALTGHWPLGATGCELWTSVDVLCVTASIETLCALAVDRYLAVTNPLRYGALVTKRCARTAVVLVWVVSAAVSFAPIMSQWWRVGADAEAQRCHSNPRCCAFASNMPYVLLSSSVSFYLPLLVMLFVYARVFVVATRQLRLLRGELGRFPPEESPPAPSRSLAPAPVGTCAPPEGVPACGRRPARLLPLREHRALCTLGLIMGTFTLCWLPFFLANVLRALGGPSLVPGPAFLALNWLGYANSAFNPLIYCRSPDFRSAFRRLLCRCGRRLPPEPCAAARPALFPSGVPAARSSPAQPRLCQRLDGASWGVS
- experiment_notes: cAMP functional agonist assay (LANCE TR-FRET) in CHO cells expressing cloned human β3-AR
- Assay type: cell-based
- test_conditions: CHO cells stably expressing cloned human β3-adrenoceptor; cAMP release; read-out: Human β3-AR Agonism EC50
endpoint_label: EC50 (nM)
Use nM as the unit, but write only the number.

Consider the worked cases shown below.
- molecule: "CN(Cc1cccnc1)C(=O)c1ccc(C[C@@H]2CC[C@H]([C@H](O)c3cccc(F)c3)N2)cc1 [Example 21-C]"
  measurement_units: "nM"
  value_measured: 10
- molecule: "CN(C(=O)c1ccc(C[C@@H]2CC[C@H]([C@H](O)c3ccc(Cl)nc3)N2)cc1)C1CCc2ncccc21 (stereo partly shown) [Example 24-A]"
  measurement_units: "nM"
  value_measured: 42

Which measured EC50 value corresponds to CN(Cc1cccnc1F)C(=O)c1ccc(C[C@@H]2CC[C@H]([C@H](O)c3cccc(F)c3)N2)cc1 [Example 26-C] ?
143

Which measured EC50 value corresponds to Cc1cc(CN(C)C(=O)c2ccc(C[C@@H]3CC[C@H]([C@H](O)c4ccccc4)N3)cc2)n[nH]1 [Example 4-B] ?
14

Which measured EC50 value corresponds to CN(Cc1cccnc1)C(=O)c1ccc(C[C@@H]2CC[C@H]([C@H](O)c3ccc(F)cc3)N2)cc1 [Example 21-F] ?
12

Which measured EC50 value corresponds to CCC(c1cc(C)n[nH]1)N(C)C(=O)c1ccc(C[C@@H]2CC[C@H]([C@H](O)c3ccc(Cl)nc3)N2)cc1 (stereo partly shown) [Example 5-A] ?
2

====

Each record here notes measured log10 EC50.
- target_or_system: human β3-AR (Homo sapiens)
- Construct: expressed in transfected cells; host or cells: CHO (Chinese hamster ovary) cells, stably transfected
- experiment_notes: cAMP functional agonist assay (LANCE TR-FRET) in CHO cells expressing cloned human β3-AR
- Type: cell-based
- test_conditions: CHO cells stably expressing cloned human β3-adrenoceptor; cAMP release; read-out: Human β3-AR Agonism EC50
Kindly note that the scale is log10 and the underlying EC50 is in nM.

- structure_as_smiles: "CN(Cc1ccc(=O)[nH]c1)C(=O)c1ccc(C[C@@H]2CC[C@H]([C@H](O)c3ccc(F)cc3)N2)cc1"
  value_measured: 2.86

Give log10 EC50 (human β3-AR (Homo sapiens)) of the following compound: `COc1ncccc1CN(C)C(=O)c1ccc(C[C@@H]2CC[C@H]([C@H](O)c3ccccc3)N2)cc1`
2.04

Give log10 EC50 (human β3-AR (Homo sapiens)) of the following compound: `CN(Cc1nc2ccccc2c(=O)n1C)C(=O)c1ccc(C[C@@H]2CC[C@H]([C@H](O)c3ccc(Cl)nc3)N2)cc1`
1.40

Give log10 EC50 (human β3-AR (Homo sapiens)) of the following compound: `C[C@H](c1nn(C)c(=O)o1)N(C)C(=O)c1ccc(C[C@@H]2CC[C@H]([C@H](O)c3ccc(Cl)cc3)N2)cc1`
1.11

Give log10 EC50 (human β3-AR (Homo sapiens)) of the following compound: `COCc1cc(CN(C)C(=O)c2ccc(C[C@@H]3CC[C@H]([C@H](O)c4ccc(Cl)nc4)N3)cc2)n[nH]1`
0.48

Give log10 EC50 (human β3-AR (Homo sapiens)) of the following compound: `C[C@H](c1nn(C)c(=O)o1)N(C)C(=O)c1ccc(C[C@@H]2CC[C@H]([C@H](O)c3ccccc3)N2)cc1`
1.83

Give log10 EC50 (human β3-AR (Homo sapiens)) of the following compound: `Cc1cc(CN(C)C(=O)c2ccc(C[C@@H]3CC[C@H]([C@H](O)c4cccnc4)N3)cc2)cnc1F`
0.85

====

- target_or_system: human β3-AR (Homo sapiens)
- Construct: expressed in transfected cells; host or cells: CHO (Chinese hamster ovary) cells, stably transfected
- experiment_notes: cAMP functional agonist assay (LANCE TR-FRET) in CHO cells expressing cloned human β3-AR
- Format: cell-based
- test_conditions: percent maximum activation relative to isoproterenol
Label scheme for Human β3-AR Agonist Activity (%): lower than 90% is 0, 90% and above is 1.

See these solved cases before continuing.
- compound: "Cc1nnc2ccc(CN(C)C(=O)c3ccc(C[C@@H]4CC[C@H]([C@H](O)c5ccccc5)N4)cc3)cn12 [Example 43-B]"
  cat: 0
- compound: "CN(Cc1cnccn1)C(=O)c1ccc(C[C@@H]2CC[C@H]([C@H](O)c3ccccc3)N2)cc1 [Example 40-B]"
  cat: 1
- compound: "COCc1cc(CN(C)C(=O)c2ccc(C[C@@H]3CC[C@H]([C@H](O)c4ccc(Cl)cc4)N3)cc2)n[nH]1 [Example 9-G]"
  cat: 1
- compound: "CN(Cc1ccc(=O)[nH]c1)C(=O)c1ccc(C[C@@H]2CC[C@H]([C@H](O)c3ccc(Cl)nc3)N2)cc1 [Example 28-A]"
  cat: 0

Note: attention shifts to another entry.
Item C[C@H](c1nn(C)c(=O)o1)N(C)C(=O)c1ccc(C[C@@H]2CC[C@H]([C@H](O)c3ccc(Cl)nc3)N2)cc1 [Example 18-A] with Human β3-AR Agonist Activity (%) of 90% or above?
1

====

Each record here notes measured Human β3-AR Agonist Activity (%).
- target_or_system: human β3-AR (Homo sapiens, UniProt P13945)
- Construct: expressed in transfected cells; host or cells: CHO (Chinese hamster ovary) cells, stably transfected
- experiment_notes: cAMP functional agonist assay (LANCE TR-FRET) in CHO cells expressing cloned human β3-AR
- Format: cell-based
- test_conditions: percent maximum activation relative to isoproterenol
Use % as the unit, but write only the number.

Consider the worked cases shown below.
- structure_as_smiles: "Cc1[nH]nc(CN(C)C(=O)c2ccc(C[C@@H]3CC[C@H]([C@H](O)c4ccc(Cl)nc4)N3)cc2)c1O"
  endpoint_label: "Human β3-AR Agonist Activity (%)"
  measurement_units: "%"
  value_measured: 94
- structure_as_smiles: "Cc1cc(CN(C)C(=O)c2ccc(C[C@@H]3CC[C@H]([C@H](O)c4ccc(Cl)cc4)N3)cc2)n[nH]1"
  endpoint_label: "Human β3-AR Agonist Activity (%)"
  measurement_units: "%"
  value_measured: 95
- structure_as_smiles: "CN(Cc1nc2ccccc2c(=O)n1C)C(=O)c1ccc(C[C@@H]2CC[C@H]([C@H](O)c3ccc(Cl)nc3)N2)cc1"
  endpoint_label: "Human β3-AR Agonist Activity (%)"
  measurement_units: "%"
  value_measured: 90

Which measured Human β3-AR Agonist Activity (%) value corresponds to `CN(Cc1cc(C2CC2)[nH]n1)C(=O)c1ccc(C[C@@H]2CC[C@H]([C@H](O)c3ccccc3)N2)cc1` ?
103

====

- target_or_system: human β3-AR (Homo sapiens, UniProt P13945)
- Construct: expressed in transfected cells; host or cells: CHO (Chinese hamster ovary) cells, stably transfected
- experiment_notes: cAMP functional agonist assay (LANCE TR-FRET) in CHO cells expressing cloned human β3-AR
- Format: cell-based
- test_conditions: CHO cells stably expressing cloned human β3-adrenoceptor; cAMP release; read-out: Human β3-AR Agonism EC50
Mark satisfied only for EC50 values smaller than 0.1 µM; exact matches and larger values are not satisfied.

See these solved cases before continuing.
- compound: "CN(C(=O)c1ccc(C[C@@H]2CC[C@H]([C@H](O)c3ccccc3)N2)cc1)C1CCc2ncccc21 (stereo partly shown) [Example 24-B]"
  cat: "not satisfied"
- compound: "CN(Cc1cncc(C(C)(C)O)c1)C(=O)c1ccc(C[C@@H]2CC[C@H]([C@H](O)c3ccc(Cl)cc3)N2)cc1 [Example 32-G]"
  cat: "satisfied"
- compound: "COC(CN(C)C(=O)c1ccc(C[C@@H]2CC[C@H]([C@H](O)c3ccccc3)N2)cc1)c1cccc(=O)[nH]1 (stereo partly shown) [Example 3-B]"
  cat: "not satisfied"
- compound: "CN(Cc1cccnc1F)C(=O)c1ccc(C[C@@H]2CC[C@H]([C@H](O)c3cccnc3)N2)cc1 [Example 26-H]"
  cat: "not satisfied"

Confirm or reject: EC50 of CC(c1cnccn1)N(C)C(=O)c1ccc(C[C@@H]2CC[C@H]([C@H](O)c3ccccc3)N2)cc1 (stereo partly shown) [Example 41-B] lies strictly below 0.1 µM
satisfied

Confirm or reject: EC50 of COC(C)CN(C)C(=O)c1ccc(C[C@@H]2CC[C@H]([C@H](O)c3ccc(Cl)nc3)N2)cc1 (stereo partly shown) [Example 2-A] lies strictly below 0.1 µM
not satisfied

Confirm or reject: EC50 of CN(Cc1cnccn1)C(=O)c1ccc(C[C@@H]2CC[C@H]([C@H](O)c3cccc(Cl)c3)N2)cc1 [Example 40-D] lies strictly below 0.1 µM
not satisfied

====

Each record here notes measured Human β3-AR Agonist Activity (%).
- target_or_system: human β3-AR (Homo sapiens, UniProt P13945)
- Construct: expressed in transfected cells; host or cells: CHO (Chinese hamster ovary) cells, stably transfected
- experiment_notes: cAMP functional agonist assay (LANCE TR-FRET) in CHO cells expressing cloned human β3-AR
- Type: cell-based
- test_conditions: percent maximum activation relative to isoproterenol
Use % as the unit, but write only the number.

- compound: "CN(Cc1cncc(C(=O)O)c1)C(=O)c1ccc(C[C@@H]2CC[C@H]([C@H](O)c3ccccc3)N2)cc1"
  target_or_system: "human β3-AR (Homo sapiens, UniProt P13945)"
  measurement_units: "%"
  Human β3-AR Agonist Activity (%): 111
- compound: "CCOc1cc(CN(C)C(=O)c2ccc(C[C@@H]3CC[C@H]([C@H](O)c4ccccc4)N3)cc2)n[nH]1"
  target_or_system: "human β3-AR (Homo sapiens, UniProt P13945)"
  measurement_units: "%"
  Human β3-AR Agonist Activity (%): 116
- compound: "CN(Cc1cc(C2CC2)[nH]n1)C(=O)c1ccc(C[C@@H]2CC[C@H]([C@H](O)c3ccc(Cl)nc3)N2)cc1"
  target_or_system: "human β3-AR (Homo sapiens, UniProt P13945)"
  measurement_units: "%"
  Human β3-AR Agonist Activity (%): 103
- compound: "CN(Cc1cncc(C(=O)O)c1)C(=O)c1ccc(C[C@@H]2CC[C@H]([C@H](O)c3ccc(Cl)nc3)N2)cc1"
  target_or_system: "human β3-AR (Homo sapiens, UniProt P13945)"
  measurement_units: "%"
  Human β3-AR Agonist Activity (%): 101
- compound: "COc1c(C)n[nH]c1CN(C)C(=O)c1ccc(C[C@@H]2CC[C@H]([C@H](O)c3ccccc3)N2)cc1"
  target_or_system: "human β3-AR (Homo sapiens, UniProt P13945)"
  measurement_units: "%"
  Human β3-AR Agonist Activity (%): 101

Which measured Human β3-AR Agonist Activity (%) value corresponds to `CN(Cc1cccnc1F)C(=O)c1ccc(C[C@@H]2CC[C@H]([C@H](O)c3cccnc3)N2)cc1` ?
96

Which measured Human β3-AR Agonist Activity (%) value corresponds to `CN(Cc1cncc(F)c1)C(=O)c1ccc(C[C@@H]2CC[C@H]([C@H](O)c3ccccc3)N2)cc1` ?
100

Which measured Human β3-AR Agonist Activity (%) value corresponds to `COCc1cc(CN(C)C(=O)c2ccc(C[C@@H]3CC[C@H]([C@H](O)c4cccnc4)N3)cc2)n[nH]1` ?
101

Which measured Human β3-AR Agonist Activity (%) value corresponds to COC(C)CN(C)C(=O)c1ccc(C[C@@H]2CC[C@H]([C@H](O)c3ccccc3)N2)cc1 (mixture of isomers) ?
94

Which measured Human β3-AR Agonist Activity (%) value corresponds to `CN(Cc1cccc(=O)[nH]1)C(=O)c1ccc(C[C@@H]2CC[C@H]([C@H](O)c3ccc(Cl)nc3)N2)cc1` ?
108

Which measured Human β3-AR Agonist Activity (%) value corresponds to `CN(Cc1cncc(C#N)c1)C(=O)c1ccc(C[C@@H]2CC[C@H]([C@H](O)c3ccccc3)N2)cc1` ?
102

Which measured Human β3-AR Agonist Activity (%) value corresponds to `CN(Cc1n[nH]c2c1CCCC2)C(=O)c1ccc(C[C@@H]2CC[C@H]([C@H](O)c3cccnc3)N2)cc1` ?
101

Which measured Human β3-AR Agonist Activity (%) value corresponds to `CN(Cc1cccnc1)C(=O)c1ccc(C[C@@H]2CC[C@H]([C@H](O)c3ccc(C4CC4)nc3)N2)cc1` ?
71

Which measured Human β3-AR Agonist Activity (%) value corresponds to `O=C(c1ccc(C[C@@H]2CC[C@H]([C@H](O)c3ccc(Cl)nc3)N2)cc1)N(CCO)Cc1cccnc1F` ?
57

Which measured Human β3-AR Agonist Activity (%) value corresponds to CCC(c1cc(C)[nH]n1)N(C)C(=O)c1ccc(C[C@@H]2CC[C@H]([C@H](O)c3cccnc3)N2)cc1 (stereo partly shown) ?
106

Which measured Human β3-AR Agonist Activity (%) value corresponds to `CN(Cc1cc(C(F)(F)F)[nH]n1)C(=O)c1ccc(C[C@@H]2CC[C@H]([C@H](O)c3cccnc3)N2)cc1` ?
98

Which measured Human β3-AR Agonist Activity (%) value corresponds to CC(c1cccnc1)N(C)C(=O)c1ccc(C[C@@H]2CC[C@H]([C@H](O)c3ccccc3)N2)cc1 (stereo partly shown) ?
93

These entries and their values trace back to patent US20160235727A1.
